methodDescription: qHTS assay for identifying genotoxic compounds that show differential cytotoxicity against isogenic chicken DT40 cell lines with known DNA damage response pathways - Rev3 mutant cell line (AID 743014); note: % is set by controls: 0 for no effect and ±100 for the full control effect; nearly all actives have a fitted effect of over 55% in size
measurementConditions: chicken DT40 Rev3-/- viability, CellTiter-Glo, 40 h; series mostly up to 68.4 µM
Inconclusive results are not listed. Calls of active or inactive are those of the source. Calls come from the whole dose curve; as a rule, active = well fitted cell-killing curve with a large enough effect in the repeat runs; inconclusive = weak or mixed curves, or effect the other way; inactive = no such curve, though single readings can be large or run the other way.
# output must be one of 1.0 (active), 0.0 (inactive)

CC(C)(CO)CO | 0.0
O=Cc1ccc(CO)o1 | 0.0

Now let's try a different one.
Query block: Write down the call the test reported for this compound. Item: CCc1cccc(CC)c1N
Result block: 0.0

###

target: Cytochrome P450 2C19 (Homo sapiens) (UniProt P33261)
Sequence (P33261 whole entry, looked up): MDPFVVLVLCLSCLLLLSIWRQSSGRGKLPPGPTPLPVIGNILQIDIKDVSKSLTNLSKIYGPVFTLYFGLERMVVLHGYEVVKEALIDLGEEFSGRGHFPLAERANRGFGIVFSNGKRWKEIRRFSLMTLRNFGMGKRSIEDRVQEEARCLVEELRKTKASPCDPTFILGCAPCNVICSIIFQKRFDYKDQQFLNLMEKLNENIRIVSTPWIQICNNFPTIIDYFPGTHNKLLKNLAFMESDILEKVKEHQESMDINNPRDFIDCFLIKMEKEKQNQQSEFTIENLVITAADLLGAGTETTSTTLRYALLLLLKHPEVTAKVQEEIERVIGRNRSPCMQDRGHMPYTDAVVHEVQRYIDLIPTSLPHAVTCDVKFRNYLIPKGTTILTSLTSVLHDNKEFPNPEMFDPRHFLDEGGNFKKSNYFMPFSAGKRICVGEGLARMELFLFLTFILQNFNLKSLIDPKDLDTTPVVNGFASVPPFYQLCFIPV
methodDescription: Cytochrome P450 Family 2 Subfamily C Member 19 (CYP2C19) small molecule antagonists: luciferase reporter qHTS assay (AID 1671197); note: nearly all actives have a fitted effect of over 65% in size
measurementConditions: P450-Glo CYP2C19 enzyme, luciferin luminescence, 1 h; series mostly up to 115 µM
Text: National Center for Advancing Translational Sciences [NCATS] U.S. Environmental Protection Agency [EPA] National Institutes of Environmental Health Sciences [NIEHS] National Toxicology Program [NTP] U.S. Food and Drug Administration [FDA] Cytochrome P450 (CYP) enzymes are membrane-bound hemeproteins that play a key role in metabolism of drugs and xenobiotics. […] The luciferin products formed are detected with a luciferin detection reagent, and the amount of light produced is proportional to CYP activity. […]
Inconclusive results are not listed. The source made the active and inactive calls. Calls come from the whole dose curve; as a rule, active = well fitted inhibition curve with a large enough effect in the repeat runs; inconclusive = weak or mixed curves; inactive = no such curve, though single readings can be large or run the other way.
Select the matching outcome among T = active, F = inactive

Examples from the recorded data:
C=CC(C)(C)C | F
Cc1cc(C)c(O)c(C)c1 | T

Query block: Recorded test call requested for CC(C=O)Cc1ccc(C(C)(C)C)cc1 (stereo not drawn)
Result block: F

Query block: Test call, this compound: CCc1cccc(O)c1
Result block: T

###

methodDescription: qHTS assay to identify small molecule agonists of the constitutive androstane receptor (CAR) signaling pathway - cell viability counter screen (AID 1224836); note: % is set by controls: 0 for no effect and ±100 for the full control effect; nearly all actives have a fitted effect of over 45% in size
measurementConditions: HepG2-CYP2B6-hCAR viability, CellTiter-Fluor, 23 h, PK11195 added to every well; series mostly up to 92.4 µM
Records with an inconclusive call do not appear. Active and inactive are the calls of the source. The call rests on the fitted dose curve; in most records, active means well fitted cell-killing curve with a large enough effect in the repeat runs; inconclusive means weak or mixed curves, or effect the other way; inactive means flat fitted curve, though single readings scatter.
assayReadout: outcome

Nc1cccc(C(F)(F)F)c1 | inactive
CCN(CC)CCNC(=O)c1ccc(N)cc1 | inactive
CC(=O)CC(=O)N(C)C | inactive
CC(C)(CO)CO | inactive

###

target: Androgen receptor (Homo sapiens) (UniProt P10275)
Sequence (P10275 whole entry, looked up): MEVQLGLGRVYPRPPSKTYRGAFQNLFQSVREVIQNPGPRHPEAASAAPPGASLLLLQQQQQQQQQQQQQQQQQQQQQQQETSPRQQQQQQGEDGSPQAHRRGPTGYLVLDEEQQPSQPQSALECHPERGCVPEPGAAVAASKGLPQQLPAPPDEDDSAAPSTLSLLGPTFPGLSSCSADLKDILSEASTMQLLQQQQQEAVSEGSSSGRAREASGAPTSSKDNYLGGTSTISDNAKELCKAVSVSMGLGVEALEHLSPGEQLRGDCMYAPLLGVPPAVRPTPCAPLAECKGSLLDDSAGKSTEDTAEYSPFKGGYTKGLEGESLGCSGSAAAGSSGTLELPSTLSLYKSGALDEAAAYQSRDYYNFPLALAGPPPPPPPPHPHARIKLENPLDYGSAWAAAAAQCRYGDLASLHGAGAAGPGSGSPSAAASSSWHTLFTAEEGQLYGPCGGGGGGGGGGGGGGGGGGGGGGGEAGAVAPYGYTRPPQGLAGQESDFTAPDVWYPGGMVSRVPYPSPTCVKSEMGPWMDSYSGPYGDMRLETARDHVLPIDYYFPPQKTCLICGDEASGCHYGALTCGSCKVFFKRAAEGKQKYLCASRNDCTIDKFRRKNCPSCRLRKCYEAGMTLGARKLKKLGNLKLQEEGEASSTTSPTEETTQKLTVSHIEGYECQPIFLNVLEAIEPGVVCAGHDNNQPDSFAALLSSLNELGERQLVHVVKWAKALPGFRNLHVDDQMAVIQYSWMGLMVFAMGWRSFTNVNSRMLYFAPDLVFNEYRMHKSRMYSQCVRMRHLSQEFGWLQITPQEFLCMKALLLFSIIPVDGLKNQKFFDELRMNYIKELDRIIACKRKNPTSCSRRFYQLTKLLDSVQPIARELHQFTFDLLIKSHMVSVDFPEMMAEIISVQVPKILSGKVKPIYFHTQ
methodDescription: qHTS assay to identify small molecule agonists of the androgen receptor (AR) signaling pathway using the MDA cell line (AID 743040; note: % is set by controls: 0 for no effect and ±100 for the full control effect; nearly all actives have a fitted effect of over 20% in size)
measurementConditions: MDA-kb2 AR-luc cells, MMTV luciferase, 16 h; at 95 µM (top of the series); stronger effect = higher value
activity change listing for selected molecules.
Use % as the unit, but write only the number.

Field: example entries. Status: answers known.
CO[Si](CCCNCCN)(OC)OC | 0.325
Cc1ccc(C(C)C)cc1 | 0.115
CCc1cccc(CC)c1N | 0.21

Turning now to a further molecule:
Query block: # return recorded activity change for entry Cc1ccccc1Cl
Result block: -0.806

###

target: Retinoic acid receptor RXR-alpha (Homo sapiens) (UniProt P19793)
Sequence (P19793 whole entry, looked up): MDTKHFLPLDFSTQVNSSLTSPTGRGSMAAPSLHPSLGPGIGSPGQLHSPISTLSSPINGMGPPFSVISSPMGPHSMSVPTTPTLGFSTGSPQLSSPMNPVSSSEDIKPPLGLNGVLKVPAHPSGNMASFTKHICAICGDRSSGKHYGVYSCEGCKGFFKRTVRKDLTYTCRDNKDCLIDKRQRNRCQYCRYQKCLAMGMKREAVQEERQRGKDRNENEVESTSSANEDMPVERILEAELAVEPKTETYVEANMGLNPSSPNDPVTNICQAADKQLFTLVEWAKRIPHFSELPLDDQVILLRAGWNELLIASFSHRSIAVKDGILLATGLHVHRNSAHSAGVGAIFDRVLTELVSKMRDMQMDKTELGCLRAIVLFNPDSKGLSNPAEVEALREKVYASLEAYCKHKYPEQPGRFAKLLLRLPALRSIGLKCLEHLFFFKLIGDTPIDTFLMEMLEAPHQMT
methodDescription: qHTS assay to identify small molecule agonists of the RXR signaling pathway (AID 1159527); note: nearly all actives have a fitted effect of over 35% in size
measurementConditions: HEK293T RXRa-UAS-bla, beta-lactamase ratio, 16 h; series mostly up to 76.8 µM
Inconclusive results are not listed. Calls of active or inactive are those of the source. Calls come from the whole dose curve.
Answer with one of the outcomes given here: true (1) (active), false (0) (inactive)

C[n+]1ccn(CCO)c1 | false (0)
OCc1ccc(Cl)cc1Cl | false (0)
NC(=O)NC(N)=O | false (0)

Query block: Short answer needed: outcome of this test for COCN(COC)c1nc(N(COC)COC)nc(N(COC)COC)n1 ?
Result block: false (0)

Query block: State the result this test recorded for O=[N+]([O-])c1cc(C(F)(F)F)ccc1Cl .
Result block: false (0)

Query block: Just curious, what result did Cc1cccc(C)c1[N+](=O)[O-] get here?
Result block: false (0)

Query block: Query: recorded result category for COc1c(Cl)ccc(Cl)c1C(=O)O in this test
Result block: false (0)

Query block: Outcome logged for Cc1cc(C)cc(O)c1 in this assay:
Result block: false (0)

Query block: Recorded test outcome, item CCOC(=O)CC(=O)OCC
Result block: false (0)

Query block: Could you please tell me the result logged for CCCCCCCCO in this assay?
Result block: false (0)

Query block: Outcome? CCCCCCCCCCCCCC(=O)O
Result block: false (0)

Query block: Per the records of this test, what outcome belongs to CCN(CC)CCNC(=O)c1ccc(N)cc1 ?
Result block: false (0)

Query block: Which result was noted for this compound in the test: O=C(O)C1=NN(c2ccc(S(=O)(=O)O)cc2)C(=O)C1
Result block: false (0)

Query block: Tell me the recorded outcome of this test for CCCN(CCC)C(=O)SCC .
Result block: true (1)

###

methodDescription: qHTS assay to identify small molecule antagonists of the TGF-beta/Smad signaling pathway - cell viability counter screen (AID 1346824); note: % is set by controls: 0 for no effect and ±100 for the full control effect; nearly all actives have a fitted effect of over 50% in size
measurementConditions: SBE-bla HEK293T viability, CellTiter-Glo luminescence; series mostly up to 76.8 µM
Inconclusive results are not listed. Activity calls are given as the source filed them. Calls follow the shape of the dose curve; as a rule, active = well fitted cell-killing curve with a large enough effect in the repeat runs; inconclusive = weak or mixed curves; inactive = flat fitted curve, though single readings scatter.
assayReadout: outcome

Answered cases to consult:
CCOC(=O)c1ccc(O)cc1 | inactive
Cc1cc(C)cc(O)c1 | inactive
O=C(O)C1=NN(c2ccc(S(=O)(=O)O)cc2)C(=O)C1 | inactive
Cc1nnc(NS(=O)(=O)c2ccc(N)cc2)s1 | inactive
O=C1O[C@H]([C@H](O)CO)C(O)=C1O | inactive

Query block: Check the records and state outcome for CC1(C)[C@@H](O[C@H]2O[C@H](C(=O)O)[C@@H](O)[C@H](O)[C@H]2O[C@@H]2O[C@H](C(=O)O)[C@@H](O)[C@H](O)[C@H]2O)CC[C@]2(C)[C@H]3C(=O)C=C4[C@@H]5C[C@@](C)(C(=O)O)CC[C@]5(C)CC[C@@]4(C)[C@]3(C)CC[C@@H]12
Result block: inactive

Query block: Complete the entry with outcome for Cc1cc(C)c(O)c(C)c1
Result block: inactive

Query block: Name the recorded outcome of the item CC(=O)CC(=O)N(C)C in your answer.
Result block: inactive

Query block: Specify measured outcome for CCCCC(CC)COC(=O)c1ccc(C(=O)OCC(CC)CCCC)cc1 (stereo not drawn) .
Result block: inactive

Query block: Could you please provide reported outcome for O=C(Cl)c1ccc(C(=O)Cl)cc1 ? Thanks!
Result block: inactive

Query block: Consider the compound N#CCC(=O)O and give its recorded outcome.
Result block: inactive

Query block: Given the compound Cc1ccc(C(C)C)cc1 , write its reported outcome.
Result block: inactive

Query block: Tell me its outcome given OB(O)O as the entry.
Result block: inactive

Query block: Determine from records and report outcome for CC(=O)OCCC(C)C
Result block: inactive

Query block: Item COc1cc(NC(=O)CC(C)=O)c(OC)cc1Cl : provide outcome
Result block: inactive

Query block: Give the value of outcome reported for the following: NC(=O)NC(N)=O
Result block: inactive

Query block: Please give the documented outcome of OC[C@H]1O[C@@H](Oc2ccc(O)cc2)[C@H](O)[C@@H](O)[C@@H]1O
Result block: inactive

Query block: For Cc1cc(CC(=O)O)n(C)c1C(=O)c1ccc(Cl)cc1 , write its outcome.
Result block: inactive

Query block: Give outcome for CC(=O)Nc1ccc(CC(=O)O)cc1
Result block: inactive

Query block: For c1cnc2c(c1)ccc1cccnc12 , write its outcome.
Result block: inactive

Query block: Tell me its outcome given Nc1nc(N)c2nc(-c3ccccc3)c(N)nc2n1 as the entry.
Result block: inactive

Query block: Answer with reported outcome of CCCOC(=O)NCCCN(C)C
Result block: inactive

###

methodDescription: qHTS assay to identify small molecule agonists of the vitamin D receptor (VDR) signaling pathway - cell viability counter screen (AID 743224); note: % is set by controls: 0 for no effect and ±100 for the full control effect; nearly all actives have a fitted effect of over 50% in size
measurementConditions: VDR-bla HEK293T viability, CellTiter-Glo luminescence, 16 h; series mostly up to 62.6 µM
Records with an inconclusive call do not appear. Activity calls are given as the source filed them. Calls come from the whole dose curve; as a rule, active = well fitted cell-killing curve with a large enough effect in the repeat runs; inconclusive = weak or mixed curves, or effect the other way; inactive = no such curve, though single readings can be large or run the other way.
assayReadout: outcome

OC[C@H]1O[C@@H](Oc2ccc(O)cc2)[C@H](O)[C@@H](O)[C@@H]1O | inactive
CCCCC(=O)O | inactive
NC(=O)NC(N)=O | inactive

###

methodDescription: qHTS assay to identify small molecule agonists of the estrogen receptor beta (ER-beta) signaling pathway - cell viability counter screen (AID 1259380); note: % is set by controls: 0 for no effect and ±100 for the full control effect; nearly all actives have a fitted effect of over 30% in size
measurementConditions: ER-beta-bla HEK293T viability, CellTiter-Glo luminescence, 16 h; series mostly up to 92.4 µM
Results filed as inconclusive are left out. Activity calls are given as the source filed them. Calls come from the whole dose curve; as a rule, active = well fitted cell-killing curve with a large enough effect in the repeat runs; inconclusive = weak or mixed curves, or effect the other way; inactive = flat fitted curve, though single readings scatter.
assayReadout: outcome

CCCCCCCCO | inactive
O=C1O[C@H]([C@H](O)CO)C(O)=C1O | inactive
NC(=O)c1ncn([C@@H]2O[C@H](CO)[C@@H](O)[C@H]2O)n1 | inactive
C=CC(C)(C)C | inactive

Query block: Respond only with outcome recorded for Cc1ccc(C(C)C)cc1
Result block: inactive

Query block: Quick one: give measured outcome for C[Si](C)(C)N[Si](C)(C)C
Result block: inactive

Query block: For the compound C=CC(=O)NCOCCCC , give its reported outcome.
Result block: inactive
